system: CAKI-1; test: NCI tumour cell line growth inhibition, 48 h
Activity calls are given as the source filed them. Cut-off read from the data, not from the text of the source: active = GI50 up to about 1.1 µM and inactive = higher.
measurement type: GI50

Input line: Look up GI50 for this compound: NC(=O)c1cccc(C2OC(COP(=O)(O)O)C(O)C2O)c1 (stereo not given)
Output line: > 50 µM (inactive)

Input line: Look up GI50 for this compound: "CC(C)OC(=O)/C=C/C(=O)O/C=C/[N+](=O)[O-]"
Output line: 34 µM (inactive)

Input line: Look up GI50 for this compound: CC(=O)OC1(C#N)CC2OC1C1N=NN(C(=O)OC(C)(C)C)C21 (stereo not given)
Output line: > 31.6 µM (inactive)

Input line: Look up GI50 for this compound: "COc1ccccc1NC(=O)C1=C(C)NC(C)=C(C(=O)Nc2ccccc2OC)C1c1ccc(C2C(C(=O)Nc3ccccc3OC)=C(C)NC(C)=C2C(=O)Nc2ccccc2OC)cc1"
Output line: 3.13 µM (inactive)

Input line: Look up GI50 for this compound: "CC/C=C\C=C/C(=O)N/C=C/CCC"
Output line: > 100 µM (inactive)

***
Input line: Look up GI50 for this compound: "O=C1C=CC(=O)c2c1ccc1c3ccccc3n(-c3ccccc3)c21"
Output line: 7.18 µM (inactive)

Input line: Look up GI50 for this compound: CCCCCCCCCCCCCCC(O)C1CCC(C(O)CCC(O)CCCCCC(O)CC2=CC(C)OC2=O)O1 (stereo not given)
Output line: 8.13 µM (inactive)

Input line: Look up GI50 for this compound: CC(C)(C)OC(=O)n1cc(C2CN(O)C(=O)C23CCC(=O)N3Cc2ccccc2)c2ccccc21 (stereo not given)
Output line: 54.6 µM (inactive)

Input line: Look up GI50 for this compound: "CCOC(=O)/C(=C/c1ccc(OC)cc1)N(CC)CC"
Output line: > 100 µM (inactive)

Input line: Look up GI50 for this compound: "COc1c(-c2ccc(F)cc2)oc2c(CC(=O)O)cccc2c1=O"
Output line: 22.3 µM (inactive)
